Just for reference, paper PMC6539110 is where these values come from.

Target: T1, Slx9 (6xHis-Slx9) (Saccharomyces cerevisiae, UniProt P53251 1-210)
T1 sequence: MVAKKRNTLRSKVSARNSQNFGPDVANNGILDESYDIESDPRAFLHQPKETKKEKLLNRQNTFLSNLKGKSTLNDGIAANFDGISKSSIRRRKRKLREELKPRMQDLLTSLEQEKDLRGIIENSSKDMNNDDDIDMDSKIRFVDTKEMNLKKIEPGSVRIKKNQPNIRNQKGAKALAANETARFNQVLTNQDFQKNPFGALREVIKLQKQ
Assay: filter binding; Filter binding: 50 mM Tris/HCl pH 8.0, 125 mM KCl, 5 mM DTT, 10% glycerol, 10 nM DNA, 0-65 uM Slx9, on ice 30 min; MST: 25 nM Cy5-DNA, NaCl (buffer partly given), 0.5% BSA, 0.05% Tween-20, 24 C
Settings: protein: recombinant; tags: 6xHis (pET28a EcoRI/NotI; about 30 kDa); 5' Cy5 (MST); folded G4
Measure: Kd (nM)
Field format: number, assumed nM, no unit text.

Please give the measured Kd for this binder: AAAAAAAAAAGGGTACGGTGGGTAATAAGGGAAGGTATCGGG (structured_DNA) [G4IX] 550
